Values from ChEMBL document CHEMBL1240513

test: Half life in BALB/c mouse at 20 mg/kg, po; type: ADME, organism-based; parameters: dose 20 mg/kg, route oral; conditions: in vivo

| smiles-code | half-life / h |
| --- | --- |
| N#C[C@@H]1C[C@H](F)CN1C(=O)[C@@H]1C[C@@H](CC(=O)N2Cc3ccc(Cl)cc3C2)C(=O)N1 | 3.6 |
| N#C[C@@H]1CC(F)(F)CN1C(=O)[C@@H]1C[C@@H](CC(=O)N2Cc3ccccc3C2)C(=O)N1 | 3.9 |
| N#C[C@@H]1C[C@H](F)CN1C(=O)[C@@H]1C[C@@H](CC(=O)N2Cc3ccccc3C2)C(=O)N1 | 1.8 |
